Test system: Streptococcus pneumoniae
Assay: Determination of MIC values (BHI broth, 96 well microtiter plate)
Format: cell-based
Details: Streptococcus pneumoniae; S. pneu; BHI broth, overnight 37° C.; read-out: MIC S. pneu
Description: Stock solutions of compounds are prepared with a concentration of 10 mg/mL. These solutions are then diluted 1:4 to give a concentration of 2.5 mg/mL. The compounds are then serially diluted 1:2 for 6 iterations. The concentrations made for each compound are 2.5, 1.25, 0.625, 0.3125, 0.156, 0.078, and 0.039 mg/mL. A control sample (no compound) is run along with each compound tested. All dilutions are made in DMSO. […]
endpoint_name: MIC

Here's what some known entries look like.
chemical_smiles | endpoint_name | result
NCc1cccc(CNC(=O)c2cc(-c3cc4cc(Cl)ccc4[nH]3)nc3cc(I)ccc23)c1 | MIC | > 25 µg/mL
CCB(OC)C(=O)c1cc(-c2c[nH]c3ccc(Br)cc23)nc2cc(Br)ccc12 | MIC | > 25 µg/mL
NCc1cccc(CNC(=O)c2cc(-c3c[nH]c4ccc(Br)cc34)nc3cc(Cl)cc(Cl)c23)c1 | MIC | < 7 µg/mL

// query Name the recorded MIC for `NCCNC(=O)c1cc(-c2c[nH]c3ccc(Cl)cc23)nc2ccc(Br)cc12` .
// result < 7 µg/mL

// query Tell me the measured MIC of `NCCNC(=O)c1cc(-c2c[nH]c3ccc(Br)cc23)nc2c(Cl)c(Cl)ccc12` , please.
// result < 7 µg/mL

// query Fill in: MIC of `Cn1cc(-c2cc(C(=O)NCCN)c3cc(I)ccc3n2)c2cc(Br)ccc21` is ___
// result < 7 µg/mL

* * *

system: Streptococcus pneumoniae; test: Determination of MIC values (BHI broth, 96 well microtiter plate); assay type: cell-based; conditions: Streptococcus pneumoniae; BHI broth, 37° C., about 16 hours; read-out: MIC S. pneu
endpoint_name: MIC

Sample records with MIC:
molecule | endpoint_name | result
Cc1ccc2nc(-c3c[nH]c4ccc(OCc5ccccc5)cc34)ccc2c1 [Example 469] | MIC | < 7 µg/mL
CNCCN(C)C(=O)c1cc(-c2cn(C)c3ccc(Br)cc23)nc2cc(Cl)ccc12 [Example 506] | MIC | < 7 µg/mL
CNCCN(C)C(=O)c1cc(-c2c[nH]c3ccc(Br)cc23)nc2ccc(Cl)cc12 [Example 500] | MIC | < 7 µg/mL
COc1ccc2nc(-c3c[nH]c4ccc(Br)cc34)ccc2c1 [Example 412] | MIC | > 25 µg/mL

We now examine a further molecule.
// query For the molecule shown here, NCCNC(=O)c1cc(-c2c[nH]c3ccc(Br)cc23)nc2ccc(C#CCO)cc12 [Example 523] , give the reported MIC.
// result < 7 µg/mL
